Assay: in vivo
Settings: iv, 367 mg/kg i.v., read-out: Toxicity (Mortality)
Description: *LD50 or percentage of mortality which is given between brackets

| compound | mortality (%) |
| --- | --- |
| CCNC(=O)Nc1ccc(OCC(O)CN2CCN(C(=O)/C=C/c3cc(OC)c(OC)c(OC)c3)CC2)c2c1OCCO2 (centres unmarked) | 10 |
| CCOC(=O)c1ccc(OCC(O)CN2CCN(C(=O)/C=C/c3cc(OC)c(OC)c(OC)c3)CC2)c2c1OCCO2 (centres unmarked) | 0 |

###

// inhibition in vivo at 1.25 mg/kg lookup, one value per entry
Test system: anaesthetized dog
Assay: Antiangorous activity on anaesthetized dog: consumption of oxygen in the left ventricule and cardiac effort (KATZ's index)
Assay type: in vivo
Details: Canis lupus familiaris, iv, 1.25 mg/kg i.v. slow perfusion, read-out: Diminution in consumption of O2
measureName: inhibition in vivo at 1.25 mg/kg (%)

| compound | measureName | measurementUnit | result |
| --- | --- | --- | --- |
| COc1cc(/C=C/C(=O)N2CCN(CC(O)COc3ccc(NC(C)=O)c4c3CCC4)CC2)cc(OC)c1OC (stereo not shown) [771 306] | inhibition in vivo at 1.25 mg/kg | % | 58 |
| COc1cc(/C=C/C(=O)N2CCCN(CC(O)COc3ccc(C(C)=O)c4c3OCCO4)CC2)cc(OC)c1OC (stereo not shown) [760 622] | inhibition in vivo at 1.25 mg/kg | % | 20 |
| CNC(=O)N(C)c1ccc(OCC(O)CN2CCN(C(=O)/C=C/c3cc(OC)c(OC)c(OC)c3)CC2)c2c1OCCO2 (stereo not shown) [771 238] | inhibition in vivo at 1.25 mg/kg | % | 40 |
| COc1cc(/C=C/C(=O)N2CCN(CC(O)COc3ccc(OC(C)=O)c4c3OCCO4)CC2)cc(OC)c1OC (stereo not shown) [780 004] | inhibition in vivo at 1.25 mg/kg | % | 22 |

###

Assay: in vivo
Conditions: iv, 336 mg/kg i.v., read-out: Toxicity (Mortality)
measureName: mortality (%)

| molecule | measurementUnit | result |
| --- | --- | --- |
| COc1cc(/C=C/C(=O)N2CCN(CC(O)COc3ccc(C(C)=O)c4c3OCCO4)CC2)cc(OC)c1O (stereo not shown) | % | 30 |

###

Assay: in vivo
Conditions: iv, 215 mg/kg i.v., read-out: Toxicity (Mortality)
Source text: *LD50 or percentage of mortality which is given between brackets

| compound | measurementUnit | mortality |
| --- | --- | --- |
| COc1cc(/C=C/C(=O)N2CCN(CC(O)COc3ccc(NC(C)=O)c4c3OCCO4)CC2)cc(OC)c1OC (stereo not shown) | % | 40 |

###

Experiment: in vivo
Details: iv, 345 mg/kg i.v., read-out: Toxicity (Mortality)
measureName: mortality (%)

| compound | measurementUnit | result |
| --- | --- | --- |
| CNC(=O)c1ccc(OCC(O)CN2CCN(C(=O)/C=C/c3cc(OC)c(OC)c(OC)c3)CC2)c2c1OCCO2 (stereo not shown) [760 710] | % | 70 |

###

Experiment: in vivo
Conditions: po, p.o.: 1855 mg/kg, read-out: Toxicity (Mortality)

| compound | mortality, % |
| --- | --- |
| COc1cc(/C=C/C(=O)N2CCN(CC(O)COc3ccc(NC(=O)Nc4ccccc4)c4c3OCCO4)CC2)cc(OC)c1OC (stereo not shown) [770 085] | 0 |
